Test system: HepG2
PROTOCOL_DESCRIPTION: Cytotoxicity data HepG2 CC20 (uM)
Type: functional
MEASURED_PARAMETER: CC20 (µM)
Express the result in µM but write the number alone.

For orientation, consider the following solved cases.
# COMPOUND, STUDY_TARGET, CC20 (µM)
measured = [
    ("CNc1nnc(Sc2cnn(-c3ccccc3)c(=O)c2Cl)s1", "HepG2", 1.55),
    ("O=C1Nc2ccc(Br)cc2C12NCCc1c2[nH]c2ccccc12 (stereo unspecified)", "HepG2", 19.9),
    ("CC(C)C(C(=O)Nc1ccc(S(=O)(=O)N(C)C)cc1)c1ccc(Cl)cc1 (stereo unspecified)", "HepG2", 5.35),
    ("O=C(Nc1ccc(N2CCNCC2)nc1)c1oc(-c2ccccc2)nc1C(F)(F)F", "HepG2", 13.4),
    ("c1ccc(Oc2ccc(-c3cncc(-c4ccc5[nH]ccc5c4)n3)cc2)cc1", "HepG2", 25.7),
]

The compound listed as COc1ccc(Cl)cc1NC(=O)CN(C)C(=O)c1cnn(-c2ccccc2)n1 has a reported CC20 of 72.2

The compound listed as O=C(NCCc1ccccc1)c1cc(-c2cccnc2)cnc1NCC1CC1 has a reported CC20 of 12.9

The compound listed as CCOc1ccccc1NC(C)C(=O)Nc1cc(C(F)(F)F)ccc1N1CCOCC1 (stereo unspecified) has a reported CC20 of 29.8
